Recorded IC50 by entry
System: Raji
Assay: Compound concentration required to reduce by 50% the number of human B (Raji)cells after three cell cycles
Assay type: functional
Conditions: read-out: ID50 (the source's name)
parameter: IC50 (µM)

# compound, system.name, value.unit, result.operator, reported.value
rows = [
    ("Cc1c([N+](=O)[O-])c(C(N)=O)nn1C1O[C@H](CO)[C@@H](O)[C@H]1O (stereo not given in full)", "Raji", "µM", ">", 1650),
    ("NC(=O)c1nn(C2O[C@H](CO)[C@@H](O)[C@H]2O)cc1[N+](=O)[O-] (stereo not given in full)", "Raji", "µM", ">", 1730),
    ("NC(=O)c1ccn(C2O[C@H](CO)[C@@H](O)[C@H]2O)n1 (stereo not given in full)", "Raji", "µM", "=", 1030),
    ("CN(Cc1cnc2nc(N)nc(N)c2n1)c1ccc(C(=O)N[C@@H](CCC(=O)O)C(=O)O)cc1 [METHOTREXATE]", "Raji", "µM", "=", 0.02),
    ("NC(=O)c1nn(C2O[C@H](CO)[C@@H](O)[C@H]2O)cc1N (stereo not given in full)", "Raji", "µM", "=", 1280),
]

----------
Test system: Vero
Test: Concentration of compound required to reduce by 50% the number of herpes simplex virus (HSV-1) plaques in vero cells
Format: functional
Settings: Chlorocebus sabaeus, read-out: ED50 (the source's name)

# molecule, EC50
data = [
    ("CCCCCn1nnc2c(C)nn(C3O[C@H](CO)[C@@H](O)[C@H]3O)c2c1=O (some centres undefined)", "> 1.4 mM"),
    ("Nc1nc2c(ncn2COCCO)c(=O)[nH]1 [ACYCLOVIR]", "4e-05 mM"),
    ("Cc1c(N)c(C(N)=O)nn1C1O[C@H](CO)[C@@H](O)[C@H]1O (some centres undefined)", "> 1.84 mM"),
    ("NC(=O)c1nn(C2O[C@H](CO)[C@@H](O)[C@H]2O)cc1Br (some centres undefined)", "> 1.55 mM"),
    ("NC(=O)c1ccn(C2O[C@H](CO)[C@@H](O)[C@H]2O)n1 (some centres undefined)", "> 2.05 mM"),
    ("NC(=O)c1nn(C2O[C@H](CO)[C@@H](O)[C@H]2O)cc1[N+](=O)[O-] (some centres undefined)", "> 1.73 mM"),
    ("NC(=O)c1nn([C@@H]2O[C@H](CO)[C@@H](O)[C@H]2O)cc1I", "> 1.35 mM"),
    ("Cc1c([N+](=O)[O-])c(C(N)=O)nn1C1O[C@H](CO)[C@@H](O)[C@H]1O (some centres undefined)", "> 1.65 mM"),
    ("NC(=O)c1nn(C2O[C@H](CO)[C@@H](O)[C@H]2O)cc1N (some centres undefined)", "> 1.83 mM"),
]

----------
Test system: Vero
Assay: Concentration of compound required to reduce by 50% the number of polio virus plaques in vero cells
Type: functional
Details: Chlorocebus sabaeus, read-out: ED50 (the source's name)

# compound, EC50
data = [
    ("NC(=O)c1nn(C2O[C@H](CO)[C@@H](O)[C@H]2O)cc1N (some centres undefined)", "> 1830 µM"),
    ("NC(=O)c1nn([C@@H]2O[C@H](CO)[C@@H](O)[C@H]2O)cc1I", "> 1350 µM"),
    ("NC(=O)c1nn(C2O[C@H](CO)[C@@H](O)[C@H]2O)cc1Br (some centres undefined)", "> 1550 µM"),
    ("NC(=O)c1nn(C2O[C@H](CO)[C@@H](O)[C@H]2O)cc1[N+](=O)[O-] (some centres undefined)", "> 1730 µM"),
    ("Cc1c(N)c(C(N)=O)nn1C1O[C@H](CO)[C@@H](O)[C@H]1O (some centres undefined)", "> 1840 µM"),
    ("CCCCCn1nnc2c(C)nn(C3O[C@H](CO)[C@@H](O)[C@H]3O)c2c1=O (some centres undefined)", "> 1400 µM"),
    ("N=C(N)N", "125 µM"),
    ("NC(=O)c1ccn(C2O[C@H](CO)[C@@H](O)[C@H]2O)n1 (some centres undefined)", "> 2050 µM"),
    ("Cc1c([N+](=O)[O-])c(C(N)=O)nn1C1O[C@H](CO)[C@@H](O)[C@H]1O (some centres undefined)", "> 1650 µM"),
]
